Target: LPA1 (Homo sapiens)
Sequence (Q92633 whole entry): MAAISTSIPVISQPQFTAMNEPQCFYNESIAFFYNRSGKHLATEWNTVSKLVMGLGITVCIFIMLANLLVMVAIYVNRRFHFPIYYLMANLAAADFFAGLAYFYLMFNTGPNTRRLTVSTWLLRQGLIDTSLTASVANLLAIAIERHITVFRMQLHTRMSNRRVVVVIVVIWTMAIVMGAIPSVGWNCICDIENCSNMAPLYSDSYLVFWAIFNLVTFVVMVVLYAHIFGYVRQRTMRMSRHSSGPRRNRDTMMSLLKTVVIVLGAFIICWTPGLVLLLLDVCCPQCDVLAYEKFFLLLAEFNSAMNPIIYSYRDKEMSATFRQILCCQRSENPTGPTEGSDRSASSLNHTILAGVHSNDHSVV
Assay: LPA1 functional antagonist assay (calcium flux in CHO cells overexpressing human LPA1)
Conditions: CHO cells overexpressing human LPA1, calcium flux induced by 10 nM LPA; read-out: hLPA1 IC50
reported_property: log10 of IC50 (log10 of the value in nM)

[[record]]
molecule = "Cc1nc(-c2onc(C)c2CNc2ncn(-c3ccccc3)n2)ccc1O[C@H]1CCC[C@H](C(=O)O)C1 [Example 7]"
reported_property = "log10 of IC50"
recorded_value = 1.46

[[record]]
molecule = "Cc1noc(-c2ccc(O[C@H]3CCC[C@H](C(=O)O)C3)cn2)c1CNc1nc(-c2ccccc2)ns1 [Example 4]"
reported_property = "log10 of IC50"
recorded_value = 2.18

[[record]]
molecule = "Cc1noc(-c2ccc(O[C@H]3CCC[C@H](C(=O)O)C3)cn2)c1CNc1ncc(C(F)(F)F)s1 [Example 6]"
reported_property = "log10 of IC50"
recorded_value = 2.69

[[record]]
molecule = "CCCc1nnc(NCc2c(C)noc2-c2ccc(O[C@H]3CCC[C@H](C(=O)O)C3)cn2)s1 [Example 1]"
reported_property = "log10 of IC50"
recorded_value = 3.39

[[record]]
molecule = "Cc1noc(-c2ccc(O[C@H]3CCC[C@H](C(=O)O)C3)cn2)c1CNc1ncc(-c2ccccc2)s1 [Example 3]"
reported_property = "log10 of IC50"
recorded_value = 2.85

[[record]]
molecule = "Cc1nc(NCc2c(C)noc2-c2ccc(O[C@H]3CCC[C@H](C(=O)O)C3)cn2)sc1-c1ccccc1 [Example 5]"
reported_property = "log10 of IC50"
recorded_value = 1.61

